Each recorded value in this set is attributed to paper PMC7377239.

- Tested on: HUVECs
- method: Tube formation (tubulogenesis) assay in HUVECs, 18 h
- Format: cell-based, human
- experimental_conditions: Homo sapiens, HUVEC, 18 h, HUVECs, 1.00 µM, 0.00 µM = 100.00, read-out: huvec.ttl.18hr
Counter-ions that a name gives are not always drawn.
For each of the molecules below, state its activity at 1 µM.
Give the value in % but do not write % after it.

Exercise: Which activity at 1 µM value belongs to Oc1ccc(-c2cccc(Cl)c2)cc1Cl ?
Solution: 107

Exercise: Item O=S(=O)(O)Oc1cc(Cl)c(-c2cc(Cl)ccc2Cl)cc1Cl [4-yl PCB 52 sulfate] has what recorded activity at 1 µM?
Solution: 87.2

Exercise: Record request: activity at 1 µM value, item COc1ccc(-c2ccc(Cl)cc2)cc1
Solution: 111

Exercise: State the recorded activity at 1 µM for this entry: O=S(=O)(O)Oc1cc(-c2ccccc2)ccc1Cl [3-yl PCB 3 sulfate]
Solution: 123

Exercise: Param item = O=C1C=CC(=O)C(c2ccc(Cl)cc2)=C1 ; retrieve measured activity at 1 µM.
Solution: 68.3

Exercise: Quick one: activity at 1 µM for Clc1ccc(-c2ccccc2)cc1 ?
Solution: 81.5

* * *

- Test system: iCell endothelial cells (human iPSC-derived ECs)
- method: Tube formation (tubulogenesis) assay in iCell endothelial cells, 18 h
- Assay type: cell-based
- experimental_conditions: Homo sapiens, Endothelial cell, endothelial cells (endo), tube formation mtl, 18 hr, read-out: POD endo.mtl.18hr
Where a name gives a salt, the structure may show the parent alone.
Threshold rule: minimal effective concentration greater than or equal to 30 µM is condition met; below that, condition not met.

Exercise: Reported minimal effective concentration reaches at least 30 µM for O=S(=O)(O)Oc1ccc(-c2ccc(Cl)cc2)cc1 [4'-PCB 3 sulfate] ?
Solution: condition not met

Exercise: Hi, just wondering whether COc1ccc(-c2ccc(Cl)cc2)cc1 shows minimal effective concentration of 30 µM or higher.
Solution: condition not met

Exercise: Given Oc1ccccc1-c1ccc(Cl)cc1 , state whether its minimal effective concentration is at least 30 µM.
Solution: condition not met

Exercise: Tell me whether minimal effective concentration is at least 30 µM here: O=S(=O)(O)Oc1ccc(-c2cccc(Cl)c2)cc1Cl [4-PCB 11 sulfate]
Solution: condition not met

Exercise: API: above_or_equal(metric=minimal effective concentration, cutoff=30 µM) for item Clc1ccc(Cl)c(-c2c(Cl)ccc(Cl)c2Cl)c1
Solution: condition met

Exercise: Check the entry Clc1ccc(Cl)c(-c2cc(Cl)ccc2Cl)c1 : does minimal effective concentration equal or exceed 30 µM?
Solution: condition met

Exercise: Kindly determine if minimal effective concentration recorded for Clc1ccc(Cl)c(-c2c(Cl)ccc(Cl)c2Cl)c1Cl [(+)-PCB 136, 2,2′,3,3′,6,6′-hexachlorobiphenyl] is above or exactly 30 µM.
Solution: condition met

Exercise: Evaluate O=S(=O)(O)Oc1cc(-c2ccccc2)ccc1Cl [3-PCB 3 sulfate] : minimal effective concentration at minimum 30 µM?
Solution: condition met

* * *

What minimal effective concentration was measured for each of the following?
- System: iCell endothelial cells (human iPSC-derived ECs)
- method: Tube formation (tubulogenesis) assay in iCell endothelial cells, 18 h
- Assay type: cell-based
- experimental_conditions: Homo sapiens, Endothelial cell, endothelial cells (endo), tube formation tlps, 18 hr, read-out: POD endo.tlps.18hr
Structures can show the parent of a compound that is named as a salt.
Quick note: give the figure in µM, leave out the unit.

Exercise: Short answer please: minimal effective concentration, iCell endothelial cells (human iPSC-derived ECs), entry O=C1C=CC(=O)C(c2ccc(Cl)cc2)=C1
Solution: 1.04

Exercise: So what minimal effective concentration did Oc1ccccc1-c1ccc(Cl)cc1 get with iCell endothelial cells (human iPSC-derived ECs)?
Solution: 9.27

Exercise: API: value(readout=minimal effective concentration, system=iCell endothelial cells (human iPSC-derived ECs)) for record COc1ccc(-c2cccc(Cl)c2)cc1Cl
Solution: 28.4

Exercise: Request - read-out minimal effective concentration | tested on iCell endothelial cells (human iPSC-derived ECs) | molecule Oc1ccc(-c2ccc(Cl)cc2)cc1
Solution: 0.19

Exercise: Can you look up minimal effective concentration on iCell endothelial cells (human iPSC-derived ECs) for Oc1ccc(-c2cccc(Cl)c2)cc1Cl ?
Solution: 52.5

Exercise: Field: minimal effective concentration (iCell endothelial cells (human iPSC-derived ECs)). Entry: Oc1cc(Cl)cc(-c2cccc(Cl)c2)c1
Solution: 5.71

Exercise: Please provide the recorded minimal effective concentration for O=S(=O)(O)Oc1cc(Cl)c(-c2cc(Cl)ccc2Cl)cc1Cl [4-PCB 52 sulfate] , tested on iCell endothelial cells (human iPSC-derived ECs).
Solution: 5.74

Exercise: Query minimal effective concentration on iCell endothelial cells (human iPSC-derived ECs) for COc1ccc(-c2ccc(Cl)cc2)cc1
Solution: 12.3

Exercise: // map O=S(=O)(O)Oc1cccc(-c2ccc(Cl)cc2)c1 [3'-PCB 3 sulfate] to recorded minimal effective concentration (system: iCell endothelial cells (human iPSC-derived ECs))
Solution: 38.6

* * *

- Test system: HUVECs
- method: High-content imaging cytotoxicity in HUVECs, 24 h
- Type: cell-based, human
- experimental_conditions: Homo sapiens, HUVEC, 24 h, HUVECs, 24 hr, 100.00 µM; 0.00 µM = 100.00; read-out: huvec.nma.24hr
Where a name gives a salt, the structure may show the parent alone.
quantity_kind: activity at 100 µM (%)
Field: numeric (%). Do not append units.

Exercise: Give the reported activity at 100 µM for O=S(=O)(O)Oc1cc(-c2ccccc2)ccc1Cl [3-yl PCB 3 sulfate] (system: HUVECs).
Solution: 96

Exercise: I'm curious: which activity at 100 µM was measured for Clc1ccc(Cl)c(-c2cc(Cl)ccc2Cl)c1 tested on HUVECs?
Solution: 49.2

Exercise: Provide value of activity at 100 µM for this record tested with HUVECs: O=C1C=CC(=O)C(c2ccc(Cl)cc2)=C1
Solution: 73.5

Exercise: Notebook: pull reported activity at 100 µM for HUVECs, entry O=S(=O)(O)Oc1cc(Cl)c(-c2cc(Cl)ccc2Cl)cc1Cl [4-yl PCB 52 sulfate]
Solution: 206

Exercise: Write down the reported activity at 100 µM of Oc1ccc(-c2ccc(Cl)cc2)cc1 , test system: HUVECs.
Solution: 80.7

Exercise: Request - read-out activity at 100 µM | tested on HUVECs | molecule Oc1ccc(O)c(-c2ccc(Cl)cc2)c1
Solution: 83.3

Exercise: API: value(readout=activity at 100 µM, system=HUVECs) for record Oc1cccc(-c2ccc(Cl)cc2)c1
Solution: 68.8

* * *

Give measured viability at 10 µM for each item. Keep answers brief.
- Test system: iCell cardiomyocytes (human iPSC-derived cardiomyocytes)
- method: High-content imaging of cytotoxicity and mitochondrial integrity in iPSC-CMs
- Format: cell-based
- experimental_conditions: Homo sapiens, Cardiomyocyte, 24 h, 10.00 µM; 0.00 µM = 100.00; read-out: cm.cam.24hrs
Structures can show the parent of a compound that is named as a salt.
Expressed in %, but write only the number.

Exercise: So what does the record say about viability at 10 µM for Oc1ccccc1-c1ccc(Cl)cc1 ?
Solution: 103

Exercise: Give its viability at 10 µM value. Item: O=S(=O)(O)Oc1cc(Cl)ccc1-c1ccccc1 [2-yl PCB 3 sulfate]
Solution: 102

Exercise: What value of measured viability at 10 µM is listed for Oc1ccc(-c2ccc(Cl)cc2)cc1 ?
Solution: 102

* * *

Exercise: state measured activity at 1 µM for each of the compounds provided.
- Tested on: iCell cardiomyocytes (human iPSC-derived cardiomyocytes)
- method: High-content imaging of cytotoxicity and mitochondrial integrity in iPSC-CMs
- Type: cell-based
- experimental_conditions: Homo sapiens, Cardiomyocyte, 1.5 h, 1.00 µM; 90min; 0.00 µM = 100.00; read-out: cm.mii.90min
Quick reminder: number only, in %, skip the unit.

Exercise: Sample Clc1ccc(Cl)c(-c2c(Cl)ccc(Cl)c2Cl)c1Cl [(+)-PCB 136, 2,2′,3,3′,6,6′-hexachlorobiphenyl] — what was its activity at 1 µM?
Solution: 103

Exercise: Find the recorded activity at 1 µM belonging to Oc1cc(Cl)c(-c2cc(Cl)ccc2Cl)cc1Cl and report it.
Solution: 97.3

Exercise: State the recorded activity at 1 µM for this entry: Clc1ccc(Cl)c(-c2c(Cl)ccc(Cl)c2Cl)c1
Solution: 109

Exercise: Bench note: what activity at 1 µM did Clc1cc(Cl)c(-c2cc(Cl)c(Cl)cc2Cl)cc1Cl show?
Solution: 112

* * *

For each entry below, report its minimal effective concentration value.
- Test system: iCell cardiomyocytes (human iPSC-derived cardiomyocytes)
- method: High-content imaging of cytotoxicity and mitochondrial integrity in iPSC-CMs
- Assay type: cell-based
- experimental_conditions: Homo sapiens, Cardiomyocyte, 24 h, cardiomyocytes (cm), mito, 24 hrs; read-out: POD cm.mito.24hrs
Counter-ions that a name gives are not always drawn.

Exercise: Form field: reported minimal effective concentration of O=S(=O)(O)Oc1cccc(-c2ccc(Cl)cc2)c1 [3'-PCB 3 sulfate]
Solution: 100 µM

Exercise: Given the compound O=S(=O)(O)Oc1ccc(-c2cccc(Cl)c2)cc1Cl [4-PCB 11 sulfate] , what is its reported minimal effective concentration?
Solution: 7.07 µM

Exercise: Which value of minimal effective concentration has been reported for Clc1ccc(-c2ccccc2)cc1 [PCB 3, 4-chlorobiphenyl] in the records?
Solution: 6.67 µM

Exercise: Quick one: minimal effective concentration for Clc1ccc(Cl)c(-c2c(Cl)ccc(Cl)c2Cl)c1 [PCB 95, 2,2′,3,5′,6-pentachlorobiphenyl] ?
Solution: 8.96 µM

Exercise: # get_value(readout='minimal effective concentration', item= O=S(=O)(O)Oc1cc(-c2ccccc2)ccc1Cl [3-PCB 3 sulfate] )
Solution: 100 µM

Exercise: Query (compound): Oc1cccc(-c2ccc(Cl)cc2)c1 [3'-OH-PCB 3] ; field requested: minimal effective concentration
Solution: 14 µM

Exercise: Reported minimal effective concentration for COc1ccc(-c2ccc(Cl)cc2)cc1 [4'-OMe-PCB 3, 4′-methoxy-4-chlorobiphenyl] : what is it?
Solution: 100 µM

Exercise: # lookup: minimal effective concentration of COc1ccc(-c2cccc(Cl)c2)cc1Cl [4-OMe-PCB 11, 4-methoxy-3,3′-dichlorobiphenyl]
Solution: 31.1 µM

Exercise: Name the reported minimal effective concentration value associated with the compound Clc1cccc(-c2cccc(Cl)c2)c1 [PCB 11, 3,3′-Dichlorobiphenyl]
Solution: 33.1 µM
